FYI, the data here is from ChEMBL document CHEMBL5104108.

- experimental_protocol: Half-life in Sprague-Dawley rat at 12 mg/kg, IG measured HPLC analysis
- Type: ADME, organism-based
- measurement_context: in vivo, po
Please respond with reported half-life for every item in the list.
The reply should be a number in h, with the unit left off.

Notebook: CNC(=O)c1cc(Oc2ccc(NC(=O)Nc3ccc(Cl)c(C(F)(F)F)c3)c(F)c2)ccn1 [REGORAFENIB] , half-life read as 5.06

Notebook: O=C(Nc1ccc(C(F)(F)F)cc1)Nc1cccc(CNc2nccnc2Cl)c1 , half-life read as 7.17

====

- experimental_protocol: Tmax in Sprague-Dawley rat at 12 mg/kg, IG measured HPLC analysis
- Type: ADME, organism-based
- measurement_context: in vivo, po
Please respond with reported Tmax for every item in the list.
The reply should be a number in h, with the unit left off.

Notebook: O=C(Nc1ccc(C(F)(F)F)cc1)Nc1cccc(CNc2nccnc2Cl)c1 , Tmax read as 12.4

Notebook: CNC(=O)c1cc(Oc2ccc(NC(=O)Nc3ccc(Cl)c(C(F)(F)F)c3)c(F)c2)ccn1 [REGORAFENIB] , Tmax read as 8.07
